Where do these numbers come from? They come from patent US10689398B2.

Target or system human σ1 receptor (Homo sapiens (Human)): recorded Ki listed per item.

Give the reported value of Ki for this record: `CC1(C)CN(C(=O)c2ccccc2)C[C@@]2(CCCN(CCc3ccccc3)CC2)O1`
< 500 nM

Read the entry O=C(c1ccccc1)N1CC2(CCCN(CCc3ccccc3)CC2)OC2(CC2)C1 (stereo not shown) and write its reported Ki.
< 100 nM

Read off the recorded Ki for `CCN1CC2(CN(CC(C)(C)C)C2)O[C@@H](C)C1=O`
≥ 500 nM

Name the recorded Ki of the compound listed here: CCN1CC(C)(C)OC2(CCCN(CCC(C)C)CC2)C1 (stereo not shown)
< 100 nM

Specify reported Ki for the compound shown: CC(C)CCN1CCCC2(C1)CN(Cc1ccccc1)CC1(CC1)O2 (stereo not shown)
< 100 nM

Identify measured Ki corresponding to CCN1CC2(CCCN(Cc3ccccc3)CC2)OC2(CC2)C1=O (stereo not shown)
< 100 nM

Entry CCN1CC(C)(C)OC2(CCCN(CCc3ccccc3)CC2)C1 (stereo not shown) needs its Ki filled in; supply it.
< 100 nM

Indicate the recorded Ki value for this compound: CC(C)CCN1CCCC2(CC1)CN(C(=O)c1ccccc1)CC1(CC1)O2 (stereo not shown)
< 100 nM

In one line, give reported Ki of the entry CCN1CC(C)(C)OC2(CCCN(CC(C)C)CC2)C1 (stereo not shown) .
< 100 nM

Note down Ki recorded for CC(C)CCN1CCCC2(C1)CN(c1ccccc1)CC1(CC1)O2 (stereo not shown)
< 100 nM

Specify Ki for `CCN1CC2(CN(CC(C)(C)C)C2)O[C@H](C)C1=O` and stop.
≥ 500 nM

Supply reported Ki belonging to this compound: `CCN1C[C@]2(CCCN(Cc3ccc(F)cc3)CC2)O[C@H](C)C1=O`
≥ 500 nM

Report measured Ki; entry is CC(C)OCCN1CCCC2(CC1)CN(C(=O)c1ccccc1)CC(C)(C)O2 (stereo not shown)
≥ 500 nM

Return value of Ki for input `CC(C)CCN1CC2(C1)CN(C(C)C)C(=O)[C@H](C)O2` , no commentary.
≥ 500 nM

Identify measured Ki associated with CC(C)CN1CCCC2(CC1)CN(C(=O)c1ccccc1)CC1(CC1)O2 (stereo not shown)
< 500 nM

Answer with the recorded Ki for the compound listed here: `CC1(C)CN(C(=O)c2ccccc2)C[C@]2(CCCN(CCc3ccccc3)CC2)O1`
< 500 nM

Supply Ki value. Item: `CC(C)CN1CC2(C1)CN(C(C)C)C(=O)[C@H](C)O2`
≥ 500 nM

For CCN1CC2(CCCN(CCc3ccccc3)CC2)OC(C)(C)C1=O (stereo not shown) , write its Ki.
< 100 nM

Provide one value: measured Ki of CCN1CC2(CCCN(CCc3ccccc3)CC2)OC2(CC2)C1 (stereo not shown)
< 100 nM

---

Provide the reported Ki of each item.

Look up and report measured Ki (human σ1 receptor (Homo sapiens (Human))) for the following compound: CCN1CC2(CN(CC(C)C)C2)O[C@H](C)C1=O [Example 38]
≥ 0.5 µM

Recall the reported Ki of CCN1CC(C)(C)OC2(CCCN(Cc3ccccc3)CC2)C1 (centres unmarked) [Example 86] when tested on human σ1 receptor (Homo sapiens (Human)).
Sequence (Q99720 whole entry): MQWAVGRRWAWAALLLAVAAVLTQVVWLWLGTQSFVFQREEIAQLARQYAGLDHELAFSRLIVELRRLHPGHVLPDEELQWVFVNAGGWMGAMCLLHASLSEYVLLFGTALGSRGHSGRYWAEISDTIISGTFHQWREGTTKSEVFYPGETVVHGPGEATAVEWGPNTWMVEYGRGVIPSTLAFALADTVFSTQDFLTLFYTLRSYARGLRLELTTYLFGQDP
< 0.1 µM

Report its Ki with human σ1 receptor (Homo sapiens (Human)) as the test system: CCN1C[C@]2(CCCN(Cc3ccccc3)CC2)O[C@@H](C)C1=O [Example 62]
≥ 0.5 µM

Provide Ki, recorded with human σ1 receptor (Homo sapiens (Human)), of O=C1N(c2ccccc2)CC2(CCCN(CCc3ccccc3)CC2)OC12CC2 (centres unmarked) [Example 9]
< 0.1 µM

Check human σ1 receptor (Homo sapiens (Human)) data and give Ki for CC(C)CN1CCCC2(C1)CN(C(=O)c1ccccc1)CC1(CC1)O2 (centres unmarked) [Example 26] .
≥ 0.5 µM
